Let's look at some sequences and their measured PBM binding z-score.
- Tested on: PXR:RXRa (NR concentration 270 nM, RXRa partner concentration 90 nM)
- assayInfo: PBM binding z-score (relative to random genomic background probes); higher = stronger binding; sequences stand for … in GC…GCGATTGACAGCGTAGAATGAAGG
Lab note: jot down the number only; don't add units.

entrySequence	testTarget	PBM binding z-score
TCGAGTAGGTTAGACGGGGCATTCAGCCAACATA	PXR:RXRa (NR concentration 270 nM, RXRa partner concentration 90 nM)	-0.0359

Given item GCTATTAGTTGATAGGGCAACCGAATGATTCTCG , the value recorded as its PBM binding z-score is -0.353

Given item CGAACTAGGTCATCCAGGACAGTGTATACATTGA , the value recorded as its PBM binding z-score is 2.03

Given item ACTAGCAGGCCAAGGGTCTCTCAAGATTAGTCCG , the value recorded as its PBM binding z-score is -0.568

Given item TATACAGGGTCAAAGGCCCGAGTACGAATGTCGA , the value recorded as its PBM binding z-score is 3.57

Given item AATACAGGCTCACTAGGCCAGAGTAGGTACGAAT , the value recorded as its PBM binding z-score is -0.759

Given item TCTTGTAGATCAACGGTTAAGAAAGCCGAAGCCT , the value recorded as its PBM binding z-score is 0.292

* * *

- Tested on: PPARg:RXRa 30nM:10nM, anti-RXR (NR concentration 30 nM, RXRa partner concentration 10 nM)
- assayInfo: PBM binding z-score (relative to random genomic background probes); higher = stronger binding; sequences stand for … in GC…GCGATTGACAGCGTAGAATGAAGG
propertyName: PBM binding z-score
Lab note: jot down the number only; don't add units.

entrySequence	PBM binding z-score
CAAACTAGGTCAAAGGTCGAAGTCGAGCCAACCA	14.3
CCATACGGGTCACGAGGTTATAGCACGACGAGCG	3.55
CCTACTGTGCCAAGGTCATTGATCAGTCAAAGCA	1.24
CCTTACGGGTCACTGACAGGTTATAGTATTTGGA	1.8
CCTACTGGGCCATTCAGGGGTCATTGATCATATG	1.27

Next, consider the following sequence.
Given item TCTAGCAGCCCAGAGGGTCACTCAAGAGGTACGG , the value recorded as its PBM binding z-score is 1.45

* * *

Let's look at some sequences and their measured PBM binding z-score.
- Tested on: RARb homodimer (NR concentration 270 nM)
- assayInfo: PBM binding z-score (relative to random genomic background probes); higher = stronger binding; sequences stand for … in GC…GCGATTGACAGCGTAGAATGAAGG
Lab note: jot down the number only; don't add units.

entrySequence	propertyName	quantitativeReadout
TCTTGTAGATCAACTGGAGGTTAAGAAAGATCGA	PBM binding z-score	0.645
CAAACTAGGTCAAGGTCACAGTCGGTTTGTGCCA	PBM binding z-score	5.15
CGTCCATGGTCATAGGAGGTCAGTGAAGACAGAT	PBM binding z-score	3.47
AGAACGAGGGCGATGAGTTGATAGCACGGGTGGC	PBM binding z-score	-0.239
GGAACGAGGGCACGTTGATAGCAGAGTTTGATGG	PBM binding z-score	1.27

Response field PBM binding z-score (RARb homodimer (NR concentration 270 nM)) for item GCTGCTAGGTCAGGTTGGTCACCTAACGGGTACG : 2.81

Response field PBM binding z-score (RARb homodimer (NR concentration 270 nM)) for item TCTTGTAGATCAAGAGAGGTTAAGAAAGTGCGCT : 0.846

Response field PBM binding z-score (RARb homodimer (NR concentration 270 nM)) for item CTCGAAAGGTCGGTTGAGGTTAGTATACGGATAA : 2.64

* * *

- System: RARg:RXRa (NR concentration 270 nM, RXRa partner concentration 90 nM)
- assayInfo: PBM binding z-score (relative to random genomic background probes); higher = stronger binding; sequences stand for … in GC…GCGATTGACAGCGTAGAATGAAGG
propertyName: PBM binding z-score

entrySequence	result
ATCCCTAGGTAAAGATAGTTCAGTGAATGCAAAT	0.428
CGTCAAGGTTCAACTAAGGTAACGTAAAGCACGC	3.57
AGAATGAGGTTACCAAAGATCTGGGAAACGCTTG	1.94
CCTACTGGGCCAAAGGTCACTGATTCCAATGCTC	6.24
CGAACTAGGTCATGGACAGTGAATCTCCGCACGC	3.94

Next, consider the following sequence.
Given item CCGACTGGGGCAGAAAGGTTACCACACCATCCGG , the value recorded as its PBM binding z-score is 1.77

* * *

- Test system: RXRa DBDmut IVT, anti-RXR (DBD mutation: RXRa K156A/R161A, NR concentration 90 nM)
- assayInfo: PBM binding z-score (relative to random genomic background probes); higher = stronger binding; sequences stand for … in GC…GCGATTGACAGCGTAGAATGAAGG
propertyName: PBM binding z-score
Lab note: jot down the number only; don't add units.

entrySequence	PBM binding z-score
ATCTCGAGGTAAAGTTCAGTGAAAGATCGATAGA	0.929
GCAGGCAGGTGAAACGCAGGTAACTCAGGGTGGC	-0.721
CGTCCAAGGCCAGAGAGGTCAGTGAATGCCGAGT	1.06
TCGAGTAGGTTACCAGTGGGGCATTCAGCTTTCT	0.241

Response field PBM binding z-score (RXRa DBDmut IVT, anti-RXR (DBD mutation: RXRa K156A/R161A, NR concentration 90 nM)) for item CCTTACGGGTCGAGGTTATAGCACGGGTGGTACG : -0.662

Response field PBM binding z-score (RXRa DBDmut IVT, anti-RXR (DBD mutation: RXRa K156A/R161A, NR concentration 90 nM)) for item CGTCCATGGTCAAGGTCAGTGAAAGAGACTCGAA : 0.79

Response field PBM binding z-score (RXRa DBDmut IVT, anti-RXR (DBD mutation: RXRa K156A/R161A, NR concentration 90 nM)) for item TCGAGTGGGTTACCAATGGGGCATTCAGCTTTCT : -0.00783

Response field PBM binding z-score (RXRa DBDmut IVT, anti-RXR (DBD mutation: RXRa K156A/R161A, NR concentration 90 nM)) for item CCTAGTTGGTCGGGAGGTCACACACCGGATATGA : 0.718

Response field PBM binding z-score (RXRa DBDmut IVT, anti-RXR (DBD mutation: RXRa K156A/R161A, NR concentration 90 nM)) for item GCTTGTAGATCAAGGTTAAGAGAGACTAAGCTAA : -0.00641

Response field PBM binding z-score (RXRa DBDmut IVT, anti-RXR (DBD mutation: RXRa K156A/R161A, NR concentration 90 nM)) for item CCTGCTGGGCCAAGGTCATTGATCAGTCAAAGCA : 1.26

Response field PBM binding z-score (RXRa DBDmut IVT, anti-RXR (DBD mutation: RXRa K156A/R161A, NR concentration 90 nM)) for item CCTTACGGGTCACGAGGTTAGAGCACGACGAGCG : 2.04

Response field PBM binding z-score (RXRa DBDmut IVT, anti-RXR (DBD mutation: RXRa K156A/R161A, NR concentration 90 nM)) for item TCATATAGGTGAAGGTGAAAGTCGAACGATATGA : 0.518

* * *

- Tested on: PPARg:RXRa 270nM:90nM, anti-RXR (NR concentration 270 nM, RXRa partner concentration 90 nM)
- assayInfo: PBM binding z-score (relative to random genomic background probes); higher = stronger binding; sequences stand for … in GC…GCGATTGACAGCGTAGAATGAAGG
propertyName: PBM binding z-score
Lab note: jot down the number only; don't add units.

entrySequence	quantitativeReadout
CGAACGAGGGCATGAGTTGTTAGCAAATGCCGAT	1.21

Next, consider the following sequence.
Given item GGAACGAGGCCATTCGAGTTGATAGCATGGCGAT , the value recorded as its PBM binding z-score is 0.257

* * *

Let's look at some sequences and their measured PBM binding z-score.
- System: RARb homodimer (NR concentration 270 nM)
- assayInfo: PBM binding z-score (relative to random genomic background probes); higher = stronger binding; sequences stand for … in GC…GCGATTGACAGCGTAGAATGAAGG
Lab note: jot down the number only; don't add units.

entrySequence	testTarget	propertyName	quantitativeReadout
ATATGTAGGTAATCGGGTCATTCAGTTTGCGCAT	RARb homodimer (NR concentration 270 nM)	PBM binding z-score	2.15
ATATGTAGGTTAGCTGGGGTCATTCTGACTAGGC	RARb homodimer (NR concentration 270 nM)	PBM binding z-score	3.66
ATCTCTAGGTAAGACTCAGATCAGTGAAGAACGC	RARb homodimer (NR concentration 270 nM)	PBM binding z-score	-0.0502
TCTTGTAGATCAAGCAGGTTAAGGAAGCCTGAGT	RARb homodimer (NR concentration 270 nM)	PBM binding z-score	0.203
TAGCCTAGGTCATTCAGTGGCCAGTATAGAAAGC	RARb homodimer (NR concentration 270 nM)	PBM binding z-score	2.59

Next, consider the following sequence.
Given item CCTACTGGGCCAAAAACGTCATTGATGCCGATAA , the value recorded as its PBM binding z-score is -0.34

The reported measurements were obtained from the supplement of paper PMC6555819.
